Below is a list of entries, each paired with its recorded Percent Effect value.
# experimental.target: Chromo domain-containing protein 1 (Saccharomyces cerevisiae (strain ATCC 204508 / S288c) (Baker's yeast))
# assay.protocol: ScCHD-1 Enzyme Inhibition Assay
# Type: functional
# Parameters: scale not given: in the data most compounds retested in dose-response had high values
# test.context: 30 µM
recorded.metric: Percent Effect (%)

INSERT INTO assay_data (molecule, result_value) VALUES
  ('Cc1noc(C(C)C)c1C(=O)NCC(c1ccsc1)N(C)C (stereo unspecified)', -5.47),
  ('CC(C)N(C)CCCNC(=O)c1cnc(-c2ccccc2)nc1', -10.6),
  ('O=C(NCCNc1ccc(C(F)(F)F)cn1)c1ccc(Br)cc1F', -26.3),
  ('CCn1cc(NC(=O)C2CCN(CCOC(C)C)CC2)cn1', 0.215),
  ('CN(C)C(=O)[C@@H]1C[C@@H]2CCN(Cc3nccs3)C[C@@H]2O1', 3.4),
  ('COC(=O)c1ccc(N2CCN(CCC(=O)NC(N)=O)C(C)C2)cc1 (stereo unspecified)', 2.67),
  ('CC(C)CNC(=O)c1ccc2nnc(C3CCN(S(C)(=O)=O)C3)n2c1 (stereo unspecified)', -1.85),
  ('CC(=O)N1CC[C@@H]2CN(C(=O)c3ccco3)CCO[C@@H]2C1', -2.25),
  ('CC(C)CC(=O)N1C[C@@H]2CCN(c3ncccn3)C[C@@H]2C1', -10.7),
  ('CNS(=O)(=O)c1ccc(C(=O)N2CCCC(n3cccn3)C2)cc1 (stereo unspecified)', -14.7),
  ('CCOc1ccccc1OC1CCN(C(=O)c2nc(=O)[nH][nH]2)CC1', -9.11);
